- Tested on: OVCAR-4 ovarian
- Assay: NCI-60 one-dose screen, 48 h
- Measurement Parameters: 10 µM unless noted
Compounds without any hit were thinned out: in the full panel of roughly 83,000, 20% have a hit. Activity calls are given as the source filed them. How the source made its calls: active means growth percent below 10; inactive means the rest.
Outcomes: Y = active, N = inactive

Compound	Discrete Label
N#CCCCCCn1c2ccccc2c2c3c(c4c5ccccc5[nH]c4c21)C(=O)N(O)C3=O	N
Cc1ccccc1NC(=O)c1cc2ccccc2cc1O	N
C[n+]1c2ccccc2c(Nc2ccc(N3CCCCC3)cc2)c2[nH]c3ccccc3c21	Y
CC(=O)c1ccc2c3c(n(C)c2c1)CCCC3	N
C=C1CC[C@@H]2[C@](C)(COC(C)=O)[C@H](OC(C)=O)CC[C@@]2(C)[C@@H]1CC(Nc1ccc(S(=O)(=O)Nc2cc(C)on2)cc1)C1=CCOC1=O (stereo partly drawn)	N
c1ccc(-c2nn[nH]n2)c(-c2ccc(CN3CCN(c4nsc5ccccc45)CC3)cc2)c1	N
COc1ccc(C2CC(c3ccc(OC)c(OC)c3)=NN2C(=O)c2cc(OC)c(OC)c(OC)c2)c(OC)c1 (stereo not drawn)	N
ClC1=C(Cl)C(Cl)=C(Cl)C1=C/C=C/c1ccccc1	N
COC(=O)CCC1=C(CC(=O)OC)C(C)=N/C1=C\c1[nH]c(-c2ccc[nH]2)cc1OC	N
C/C(=N/N=C(N)N)c1ccc(Cl)cc1	N
O=C(Nc1ccc(Cl)cc1)Nc1ccc(Oc2nncc3ccccc23)cc1	Y
Cc1nn(-c2ccc(Cl)cc2)c2nc3c(nc12)c(=O)oc1ccccc13	N
CCOc1nc(-c2ccccc2)cc2c(O)c(C(=O)n3nc(C)cc3C)[nH]c(=O)c12	N
Cc1cc(NC(=O)c2ccc(N)cc2)ccc1N=Nc1ccc2c(O)c(N=Nc3ccc(Cl)c(S(=O)(=O)O)c3)c(S(=O)(=O)O)cc2c1	N
Cc1cc(C)n(C(=O)c2nn(-c3ccc(Cl)cc3)cc2O)n1	N
COc1cc(/C=C2\CCC/C(=C\c3ccc(OCC4CO4)c(OC)c3)C2=O)ccc1OCC1CO1 (stereo not drawn)	N
COc1ccc2c3c(c(OCCCN(C)C)nc2c1)-c1ccc(Cl)cc1C3=O	Y
NC(N)=NC(N)=NCCCc1ccccc1	N
CCCCCCCC/C=C\CCCCCCCCOc1ccccc1CC(=O)NCC[N+]1(C)CCCC1	N
CCCCCCOc1ccc(/C=N/NC(N)=S)cc1	N
O=C(CCc1nnc(Cn2ccnc2)o1)c1nc2ccccc2[nH]1	N
Nc1ccc(S(=O)(=O)Nc2ncccn2)cc1	N
CCCCC1Nc2nc(SC)n(C)c(=O)c2CN(Cc2ccccc2)C1=O (stereo not drawn)	N
CCOC(=O)C1=C(COCCN)NC(C)=C(C(=O)OC)C1c1ccccc1Cl (stereo not drawn)	N
O=C(CCc1nnc2sc(Cc3ccccc3Cl)nn12)c1nc2ccccc2[nH]1	N
O=C1CC(C(F)(F)F)=NN1C(=O)c1nn(-c2ccc(Cl)cc2)cc1O	N
O=C1c2ccccc2C(=O)c2c1cccc2-n1nnc2ccccc21	N
COc1ccc(Cn2c(NCCCN(C)C)nc(=O)n(Cc3ccc(F)cc3)c2=O)cc1	N
COc1ccc(C(=O)/C=C/c2c(Cl)nc3c(c(C)nn3-c3ccccc3)c2-c2ccc(Br)cc2)cc1	N
CCOc1ccccc1C(=O)OCC(=O)Nc1cccc(S(=O)(=O)N(C)C)c1	N
Nc1cc(Cl)c(S(N)(=O)=O)cc1S(N)(=O)=O	N
Clc1cc(Cl)c(OCC#CI)cc1Cl	N
Clc1ncn[nH]1	N
N#Cc1c2ccccc2c2n1-c1ccccc1OC(c1ccccc1)C2=O (stereo not drawn)	N
CO[C@H]1/C=C/O[C@@]2(C)Oc3c(C)c(O)c4c(O)c(c(/C=N/N5CCN(C)CC5)c(O)c4c3C2=O)NC(=O)/C(C)=C\C=C\C(C)[C@H](O)[C@@H](C)[C@@H](O)[C@@H](C)[C@@H](OC(C)=O)[C@@H]1C (stereo partly drawn)	N
CCC1(c2ccccc2)Oc2ccccc2-n2c(C#N)c3ccccc3c2C1=O (stereo not drawn)	N
O=C(Nc1cccc2ccccc12)c1cc2c(cc1Br)OCO2	N
Cc1ccc(C=C2C(Cl)=C(Cl)C(Cl)=C2Cl)cc1	Y
Cc1cc2cn3c4cccnc4[nH]c(=O)c3c2cc1C	N
COc1cc(C2NC(c3ccc(Cl)cc3)C(C)/C(=N/NC(N)=S)C2C)cc(OC)c1OC (stereo not drawn)	N
COc1ccc(-c2c(-c3cc(OC)c(OC)c(OC)c3)noc2N)cc1	N
O=C(Nc1ccc(C2=NCCCN2)cc1)Nc1ccc(C2=NCCCN2)cc1	N
OC(Cc1cccnc1)c1ccccc1 (stereo not drawn)	N
